Target: human HSL (Homo sapiens)
Construct: overlapping PCR to generate a full length human HSL ORF with a 3′-His6 tag; His6 (C)
Sequence (Q05469 1-1076): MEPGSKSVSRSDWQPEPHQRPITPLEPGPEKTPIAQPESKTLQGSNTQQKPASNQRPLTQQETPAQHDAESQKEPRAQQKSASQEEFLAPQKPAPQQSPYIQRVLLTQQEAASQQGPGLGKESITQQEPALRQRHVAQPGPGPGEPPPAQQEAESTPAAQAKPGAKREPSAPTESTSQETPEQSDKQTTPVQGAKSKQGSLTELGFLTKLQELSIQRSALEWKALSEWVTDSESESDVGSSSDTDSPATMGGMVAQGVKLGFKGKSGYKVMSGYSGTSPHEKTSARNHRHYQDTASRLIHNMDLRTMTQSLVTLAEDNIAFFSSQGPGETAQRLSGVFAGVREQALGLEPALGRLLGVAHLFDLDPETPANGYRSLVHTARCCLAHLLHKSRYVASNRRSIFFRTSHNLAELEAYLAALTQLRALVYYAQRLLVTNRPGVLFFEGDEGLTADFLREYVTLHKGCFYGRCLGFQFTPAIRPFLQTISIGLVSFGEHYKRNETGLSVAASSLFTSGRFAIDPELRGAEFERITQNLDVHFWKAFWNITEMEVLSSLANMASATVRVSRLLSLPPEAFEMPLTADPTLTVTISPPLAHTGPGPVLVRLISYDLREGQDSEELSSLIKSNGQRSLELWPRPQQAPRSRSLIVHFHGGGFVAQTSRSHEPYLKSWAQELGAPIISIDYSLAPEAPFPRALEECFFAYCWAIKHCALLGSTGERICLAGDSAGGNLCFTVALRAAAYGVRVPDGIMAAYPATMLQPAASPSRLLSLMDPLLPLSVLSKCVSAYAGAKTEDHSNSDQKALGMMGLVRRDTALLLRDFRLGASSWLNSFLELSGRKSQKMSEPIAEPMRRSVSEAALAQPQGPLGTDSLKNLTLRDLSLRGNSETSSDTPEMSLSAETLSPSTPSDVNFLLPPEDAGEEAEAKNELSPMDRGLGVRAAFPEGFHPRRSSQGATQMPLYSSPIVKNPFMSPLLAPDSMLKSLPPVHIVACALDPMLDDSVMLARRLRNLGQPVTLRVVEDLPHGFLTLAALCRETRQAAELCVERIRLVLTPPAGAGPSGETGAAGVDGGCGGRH
Test: Human Hormone-Sensitive Lipase (HSL) Enzyme Inhibition Assay
Conditions: colorimetric assay, 2,3-dimercapto-1-propanol tributyrate (DMPT) substrate, 37° C. for 20 minutes, absorbance at 405 nm; read-out: HSL hum IC50
PROPERTY_LABEL: IC50 (nM)
Just the number please, in nM, no unit attached.

[
  {
    "COMPOUND": "CCN(C(=O)N1CCC2(CC1)CCN(c1ccc(OC(F)(F)F)cc1)C2=O)c1ccc(OC(F)(F)F)cc1 [Example 311]",
    "PROPERTY_LABEL": "IC50",
    "VALUE_OBSERVED": 60
  },
  {
    "COMPOUND": "CCN(CCOC)S(=O)(=O)N1CCC2(CCN(c3ccc(OC(F)(F)F)cc3)C2=O)CC1 [Example 294]",
    "PROPERTY_LABEL": "IC50",
    "VALUE_OBSERVED": 90
  },
  {
    "COMPOUND": "CC(C)CS(=O)(=O)N1CCC2(CCN(c3ccc(OC(C)C(F)(F)F)cc3)C2=O)CC1 (centres unmarked) [Example 86]",
    "PROPERTY_LABEL": "IC50",
    "VALUE_OBSERVED": 80
  },
  {
    "COMPOUND": "CC(O)(c1ccc(N2CCC3(CCN(S(=O)(=O)C4CC4)CC3)C2=O)cc1)C(F)(F)F (centres unmarked) [Example 171]",
    "PROPERTY_LABEL": "IC50",
    "VALUE_OBSERVED": 550
  },
  {
    "COMPOUND": "CCC(C(=O)N1CCC2(CC1)CCN(c1ccc(OC(F)(F)F)cc1)C2=O)c1ccccc1 (centres unmarked) [Example 223]",
    "PROPERTY_LABEL": "IC50",
    "VALUE_OBSERVED": 110
  },
  {
    "COMPOUND": "CC(C)CS(=O)(=O)N1CCC2(CCN(c3ccc(C(O)C(F)F)cc3)C2=O)CC1 (centres unmarked) [Example 177]",
    "PROPERTY_LABEL": "IC50",
    "VALUE_OBSERVED": 450
  },
  {
    "COMPOUND": "O=C1N(c2ccc(C3CC3)cc2)CCC12CCN(S(=O)(=O)c1cccs1)CC2 [Example 36]",
    "PROPERTY_LABEL": "IC50",
    "VALUE_OBSERVED": 50
  }
]

GET /values?readout=IC50&item= O=C(N1CCC2(CC1)CCN(c1ccc(OC(F)(F)F)cc1)C2=O)N1CCCc2ccccc21 [Example 281]
110

====

target: human HSL (Homo sapiens); construct: overlapping PCR to generate a full length human HSL ORF with a 3′-His6 tag; His6 (C); assay: Human Hormone-Sensitive Lipase (HSL) Enzyme Inhibition Assay; conditions: colorimetric assay, 2,3-dimercapto-1-propanol tributyrate (DMPT) substrate, 37° C. for 20 minutes, absorbance at 405 nm; read-out: HSL hum IC50
PROPERTY_LABEL: pIC50
When answering, recall that pIC50 equals minus log10 of the concentration in mol/L, and write that number alone.

[
  {
    "SMILES_DATA": "CCS(=O)(=O)c1ccc(N2CCC3(CCN(S(=O)(=O)c4ccccc4Cl)CC3)C2=O)cc1",
    "TARGET_ENTITY": "human HSL (Homo sapiens)",
    "pIC50": 7.22
  }
]

GET /values?readout=pIC50&item= O=C1N(c2ccc(C3CC3)cc2)CCC12CCN(S(=O)(=O)c1ccccc1Cl)CC2
7.52

GET /values?readout=pIC50&item= Cc1noc(C)c1S(=O)(=O)N1CCC2(CCN(c3ccc(OC(F)(F)F)cc3)C2=O)CC1
6.96

GET /values?readout=pIC50&item= CCN(C(=O)N1CCC2(CC1)CCN(c1ccc(OC(F)(F)F)cc1)C2=O)c1ccc(Cl)cc1
6.92

GET /values?readout=pIC50&item= CCc1ccc(N2CCC3(CCN(S(=O)(=O)CC(C)(C)C)CC3)C2=O)cc1
7.10

GET /values?readout=pIC50&item= O=C1N(c2ccc(OC(F)(F)F)cc2)CCC12CCN(S(=O)(=O)c1ccccc1OC(F)(F)F)CC2
7.70

GET /values?readout=pIC50&item= O=C1N(c2ccc(OC(F)(F)F)cc2)CCC12CCN(S(=O)(=O)CC1CCC1)CC2
7.05

GET /values?readout=pIC50&item= CCCc1ccc(N2CCC3(CCN(S(=O)(=O)c4ccccc4OC(F)(F)F)CC3)C2=O)cc1
7.40

====

Catalogue of log10(IC50) values
Molecular target: human HSL (Homo sapiens)
Construct: overlapping PCR to generate a full length human HSL ORF with a 3′-His6 tag; His6 (C)
Sequence (Q05469 1-1076): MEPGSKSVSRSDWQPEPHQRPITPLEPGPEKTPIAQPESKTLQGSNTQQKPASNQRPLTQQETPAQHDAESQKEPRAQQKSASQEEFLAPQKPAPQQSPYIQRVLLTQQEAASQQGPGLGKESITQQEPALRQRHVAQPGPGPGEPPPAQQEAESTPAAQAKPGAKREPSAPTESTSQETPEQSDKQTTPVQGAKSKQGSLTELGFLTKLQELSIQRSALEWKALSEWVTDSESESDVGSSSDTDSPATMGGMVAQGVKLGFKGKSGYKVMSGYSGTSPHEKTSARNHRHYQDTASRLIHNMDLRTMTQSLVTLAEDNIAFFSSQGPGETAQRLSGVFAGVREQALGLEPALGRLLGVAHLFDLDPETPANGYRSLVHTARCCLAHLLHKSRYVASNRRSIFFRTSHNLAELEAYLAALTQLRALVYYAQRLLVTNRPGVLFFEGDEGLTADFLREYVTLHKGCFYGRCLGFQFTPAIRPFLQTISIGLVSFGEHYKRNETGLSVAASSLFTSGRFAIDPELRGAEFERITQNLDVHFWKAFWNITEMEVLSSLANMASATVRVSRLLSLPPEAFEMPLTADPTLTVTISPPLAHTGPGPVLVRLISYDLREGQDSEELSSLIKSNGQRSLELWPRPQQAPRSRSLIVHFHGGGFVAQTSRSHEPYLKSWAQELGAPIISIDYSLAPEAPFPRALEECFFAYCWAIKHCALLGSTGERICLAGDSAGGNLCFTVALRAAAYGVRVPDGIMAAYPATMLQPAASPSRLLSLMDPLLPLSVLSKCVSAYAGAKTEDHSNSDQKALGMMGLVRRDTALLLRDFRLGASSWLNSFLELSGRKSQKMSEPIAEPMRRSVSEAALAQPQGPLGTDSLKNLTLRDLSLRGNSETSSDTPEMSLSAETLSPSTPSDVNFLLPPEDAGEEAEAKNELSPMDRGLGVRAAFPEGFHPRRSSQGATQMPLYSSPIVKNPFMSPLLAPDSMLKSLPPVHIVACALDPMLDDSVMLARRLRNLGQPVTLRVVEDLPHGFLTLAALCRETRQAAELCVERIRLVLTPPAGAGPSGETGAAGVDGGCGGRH
Experiment: Human Hormone-Sensitive Lipase (HSL) Enzyme Inhibition Assay
Conditions: colorimetric assay, 2,3-dimercapto-1-propanol tributyrate (DMPT) substrate, 37° C. for 20 minutes, absorbance at 405 nm; read-out: HSL hum IC50
Description: Production of Human Full Length Hormone Sensitive Lipase-His^6 1) Cloning: cDNA was prepared from commercial human brain polyA-+ RNA and used as a template in overlapping PCR to generate a full length human HSL ORF with a 3′-His6 tag. […] Cells were thawed. […] The protein concentration was calculated from absorbance at 280 nm, using 280=0.67 cm-1 mg-1. […] HSL enzyme activity was measured by a colorimetric assay using 2,3-dimercapto-1-propanol tributyrate (Aldrich, St. Louis, Mo.) as a substrate. […]
Remember, log10 of IC50, in nM.

Some compounds with recorded log10(IC50):
[
  {
    "COMPOUND": "CS(=O)(=O)Oc1ccc(N2CCC3(CCN(S(=O)(=O)c4ccc(F)cc4C(F)(F)F)CC3)C2=O)cc1 [Example 83]",
    "VALUE_OBSERVED": 1.60
  },
  {
    "COMPOUND": "CCc1ccc(N2CCC3(CCN(C(=O)CC(C)(C)C)CC3)C2=O)cc1 [Example 20]",
    "VALUE_OBSERVED": 2.38
  },
  {
    "COMPOUND": "CC(C(=O)N1CCC2(CC1)CCN(c1ccc(OC(F)(F)F)cc1)C2=O)c1ccccc1 (centres unmarked) [Example 222]",
    "VALUE_OBSERVED": 2.00
  },
  {
    "COMPOUND": "O=C(CCl)N1CCC2(CC1)CCN(c1ccc(OC(F)(F)F)cc1)C2=O [Example 225]",
    "VALUE_OBSERVED": 2.51
  },
  {
    "COMPOUND": "CCc1ccc(N2CCC3(CCN(S(=O)(=O)c4ccccc4Cl)CC3)C2=O)cc1 [Example 17]",
    "VALUE_OBSERVED": 1.48
  }
]

Okay, now this compound:
GET /values?readout=log10(IC50)&item= COCCc1ccc(N2CCC3(CCN(S(=O)(=O)c4ccccc4OC(F)(F)F)CC3)C2=O)cc1 [Example 105]
1.30

The reported numbers originate from patent US8329904B2.
